From: PubChem BioAssay (EPA / NIEHS)

PROTOCOL_NOTES: ATG_GLI_CIS: Attagene CIS-FACTORIAL HepG2 Assay for human Zinc Finger Protein GLI1 (AID 2282945)
CONDITION_SUMMARY: HepG2, Attagene cis-factorial reporter mRNA, GLI element; actives raise or lower the signal
The source made the active and inactive calls. Rule for the calls: active = hit-call score of the fitted dose curve at least 0.9, where 1 is the maximum; inactive = score below 0.9.
Outcomes: class 1 (active), class 0 (inactive)

> print(dat)
                                    molecule    group
 1                   CCCCCCCCCCCCS(=O)(=O)Cl  class 0
 2              CSc1c(Cl)c(Cl)c(Cl)c(Cl)c1Cl  class 1
 3                   CCCCCCCCCCCCN1CCCCCC1=O  class 0
 4                           C=CCN(CC=C)CC=C  class 0
 5                      CC=Cc1ccc(OCC)c(O)c1  class 0
 6              CC(C)CCCCCCc1ccc(OCCOCCO)cc1  class 0
 7                        Brc1ccc(Br)c(Br)c1  class 0
 8                  CC(C)(C)c1ccc(C(=O)O)cc1  class 0
 9        CN(C)C(=O)Nc1ccc(Oc2ccc(Cl)cc2)cc1  class 0
10                      Cc1ccc(-c2ccccc2)cc1  class 0
11      COc1ccc(OC)c(N=Nc2c(O)ccc3ccccc23)c1  class 0
12        CCOC(=O)C(C#N)=C(c1ccccc1)c1ccccc1  class 0
13  O=C(c1ccccc1)C(O)c1ccccc1 (centres undefined)  class 0
14                    Cc1ccc2c(c1)C(=O)OC2=O  class 0
